UniProt P23219 measurements of IC50, listed per entry.

{"columns": ["molecule", "IC50"],
 "data": [
  ["COc1cc(Br)cc2c1OC(C(F)(F)F)C(C(=O)O)=C2 (stereo not drawn)", "> 100 µM"]
]}

Lab note: molecule CC(C)(CO)c1ccc2c(c1)OC(C(F)(F)F)C(C(=O)O)=C2 (stereo not drawn) tested on UniProt P23219; recorded IC50 was > 100 µM

Lab note: molecule N#Cc1ccc(Oc2cc3c(cc2Cl)C=C(C(=O)O)C(C(F)(F)F)O3)cc1 (stereo not drawn) tested on UniProt P23219; recorded IC50 was > 100 µM

====

Each entry below carries its recorded melting point.

Kindly note the recorded melting point for O=C(O)C1=Cc2cc(-c3ccccc3)ccc2OC1C(F)(F)F (centres unmarked) [Example 132] , which is 197 to 198 °C

Kindly note the recorded melting point for O=C(O)C1=Cc2cc(-c3cccs3)ccc2OC1C(F)(F)F (centres unmarked) [Example 136] , which is 209 to 212 °C

Kindly note the recorded melting point for O=C(O)C1=Cc2cc(S(=O)(=O)Cc3ccccc3)ccc2OC1C(F)(F)F (centres unmarked) [Example 70] , which is 172 to 176 °C

Kindly note the recorded melting point for O=C(O)C1=Cc2cc(Cl)cc(C#Cc3ccc(Cl)cc3)c2OC1C(F)(F)F (centres unmarked) [Example 122] , which is 210.4 to 211.4 °C

Kindly note the recorded melting point for CCOc1cccc2c1OC(C(F)(F)F)C(C(=O)O)=C2 (centres unmarked) [Example 93] , which is 159.4 to 160.9 °C

====

Molecular target: COX-2 (UniProt P35354)
Assay: Fast assay for COX-2 activity (PGE2 ELISA)
Type: biochemical, human or murine
Conditions: fast assay: 10 min pre-incubation at 25° C., reaction stopped after two minutes, pH 7.5
readout.type: IC50

{"columns": ["molecule", "experimental.target", "IC50"],
 "data": [
  ["O=C(O)C1=Cc2cc(SC(F)(F)F)ccc2SC1C(F)(F)F (stereo not drawn)", "COX-2 (UniProt P35354)", "< 100 nM"]
]}

Kindly note the recorded IC50 for COc1ccc(Sc2cc3c(cc2Cl)C=C(C(=O)O)C(C(F)(F)F)O3)cc1 (stereo not drawn) , which is < 100 nM

Kindly note the recorded IC50 for O=C(O)C1=Cc2cc(Oc3ccc(C(F)(F)F)cc3)ccc2OC1C(F)(F)F (stereo not drawn) , which is < 100 nM

====

Target: COX-2 (UniProt P35354)
Sequence (P35354 1-604): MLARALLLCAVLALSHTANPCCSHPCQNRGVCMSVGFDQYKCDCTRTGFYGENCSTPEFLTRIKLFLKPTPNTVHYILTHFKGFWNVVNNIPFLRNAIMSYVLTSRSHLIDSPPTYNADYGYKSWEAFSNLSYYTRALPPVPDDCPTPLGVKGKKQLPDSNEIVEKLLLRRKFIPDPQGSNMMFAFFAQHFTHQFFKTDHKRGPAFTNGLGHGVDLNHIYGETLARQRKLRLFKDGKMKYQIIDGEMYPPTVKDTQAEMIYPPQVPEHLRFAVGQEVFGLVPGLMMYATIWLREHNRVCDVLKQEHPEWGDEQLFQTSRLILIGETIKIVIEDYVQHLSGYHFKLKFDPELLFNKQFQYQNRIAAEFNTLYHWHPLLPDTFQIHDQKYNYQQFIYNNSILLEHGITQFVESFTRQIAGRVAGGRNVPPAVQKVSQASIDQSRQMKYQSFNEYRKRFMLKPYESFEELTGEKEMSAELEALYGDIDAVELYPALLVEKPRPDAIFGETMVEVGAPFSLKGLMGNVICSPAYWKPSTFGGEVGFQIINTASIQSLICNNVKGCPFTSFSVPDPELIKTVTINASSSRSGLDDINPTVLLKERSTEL
Test: Fast assay for COX-2 activity (PGE2 ELISA)
Assay type: biochemical, human or murine
Conditions: fast assay: 10 min pre-incubation at 25° C., reaction stopped after two minutes, pH 7.5
pIC50: −log10 of the molar value.
readout.type: pIC50

Kindly note the recorded pIC50 for CC(C)c1ccc2c(c1)OC(C(F)(F)F)C(C(=O)O)=C2 (stereo not drawn) [Example 25] , which is < 4.00

Kindly note the recorded pIC50 for O=C(O)C1=Cc2cc(Cl)cc(C#Cc3ccccc3)c2OC1C(F)(F)F (stereo not drawn) [Example 120] , which is > 7.00

Kindly note the recorded pIC50 for COc1ccc(Oc2ccc3c(c2)C=C(C(=O)O)C(C(F)(F)F)O3)cc1Cl (stereo not drawn) [Example 9] , which is > 7.00

====

Each entry below carries its recorded melting point.

Worked cases, answers included:
{"columns": ["compound", "assay.value"],
 "data": [
  ["O=C(O)C1=Cc2cc(Cl)c(-c3ccccc3)cc2OC1C(F)(F)F (stereo not shown) [Example 30]", "185.3 to 187.8 °C"],
  ["O=Cc1cc(Cl)cc2c1OC(C(F)(F)F)C(C(=O)O)=C2 (stereo not shown) [Example 76]", "243.3 to 252.4 °C"],
  ["COc1ccc(Sc2cc3c(cc2Cl)C=C(C(=O)O)C(C(F)(F)F)O3)cc1 (stereo not shown) [Example 191]", "239.4 to 242.3 °C"],
  ["O=C(O)C1=Cc2cccc(F)c2OC1C(F)(F)F (stereo not shown) [Example 17]", "197.7 to 210.1 °C"],
  ["O=C(O)C1=Cc2cc(Cl)c(Oc3ccccn3)cc2OC1C(F)(F)F (stereo not shown) [Example 202]", "234.2 to 235.4 °C"],
  ["CC(C)(CO)c1cc2c(cc1Cl)C=C(C(=O)O)C(C(F)(F)F)O2 (stereo not shown) [Example 178]", "203.8 to 205.4 °C"],
  ["O=C(O)C1=Cc2cc(Cl)c(Sc3ccc(Cl)cc3)cc2OC1C(F)(F)F (stereo not shown) [Example 192]", "251.7 to 253.3 °C"],
  ["O=C(O)C1=Cc2cc([N+](=O)[O-])ccc2OC1C(F)(F)F (stereo not shown) [Example 37]", "187 to 189 °C"]
]}

Kindly note the recorded melting point for O=C(O)C1=Cc2cc(Cl)c(Oc3cccc(Cl)n3)cc2OC1C(F)(F)F (stereo not shown) [Example 199] , which is 226.4 to 227.4 °C

Kindly note the recorded melting point for CC(C)(C)c1ccc2c(c1)C=C(C(=O)O)C(C(F)(F)F)S2 (stereo not shown) [Example 147] , which is 183.8 to 184.6 °C

Kindly note the recorded melting point for C#Cc1cc(Cl)cc2c1OC(C(F)(F)F)C(C(=O)O)=C2 (stereo not shown) [Example 115] , which is 186.2 to 189 °C

Kindly note the recorded melting point for O=C(O)C1=Cc2cc(Cl)c(Oc3ccc([N+](=O)[O-])cc3)cc2OC1C(F)(F)F (stereo not shown) [Example 203] , which is 246.4 to 248.3 °C

Kindly note the recorded melting point for O=C(O)C1=Cc2ccc3ccccc3c2OC1C(F)(F)F (stereo not shown) [Example 62] , which is 245.9 to 248.6 °C

Where do these numbers come from? They come from patent US7138411B2.
